Tested on: Agkistrodon contortrix venom PLA2
Experiment: venom sPLA2 inhibition IC50, varespladib and CroFab alone and together
Type: biochemical
Details: varespladib and CroFab ® together, read-out: Varespladib IC50 (nM) With CroFab ®
Text: Background. Phospholipase A2 (PLA2) catalyzes the hydrolysis of phospholipids at the sn-2 position yielding a free fatty acid and a lysophospholipid. The release of arachidonic acid from membrane phospholipids by PLA is believed to be a key step in the control of eicosanoid production within the cell. […] PBS was the buffer in the case of MP and SP assays and absorbance measured at 495 nm. […]
reported property: IC50 (nM)
Field: numeric (nM). Do not append units.

*Q* Supply reported IC50 belonging to this compound: CCc1c(C(=O)C(N)=O)c2c(OCC(=O)O)cccc2n1Cc1ccccc1
*A* 0.045

---

Tested on: Agkistrodon piscivorus venom PLA2
Assay: venom sPLA2 inhibition IC50, varespladib and CroFab alone and together
Format: biochemical
Settings: varespladib alone, read-out: Varespladib (IC50 nM)
reported property: IC50 (nM)
Field: numeric (nM). Do not append units.

*Q* Supply reported IC50 belonging to this compound: CCc1c(C(=O)C(N)=O)c2c(OCC(=O)O)cccc2n1Cc1ccccc1
*A* 0.28
